Listing of entries alongside the reported log10 solubility.
test: Assessment of solubility: HT solubility in pION buffer, UV spectrophotometry; details: pION system solution buffer, pH 7.4, pH 7.4, aqueous buffer, kinetic from dmso stock, Solubility (pH 7.4), pH 7.4 buffer, 16-19 h incubation, 1.0% DMSO
outcome measure: log10 solubility (log10 of the value in µg/mL)

>  <compound>
Cc1ccc(OCc2ccc(CN3CCOCC3)cc2C)c(-c2csc(N3CC4CCC(C3)C4C(=O)O)n2)c1 (stereo not shown)

>  <log10 solubility>
1.62

$$$$
>  <compound>
Cc1cc(C(=O)N2CCCCC2)ccc1COc1ccc(Cl)cc1-c1csc(N2CCC(C(=O)O)CC2)n1

>  <log10 solubility>
1.32

$$$$
>  <compound>
Cc1ccc(OCc2ccc(CN3CCOCC3)cc2C)c(-c2csc(N3CC[C@]4(C(=O)O)C[C@@H]4C3)n2)c1

>  <log10 solubility>
0.60

$$$$
>  <compound>
Cc1ccc(OCc2ccc(CN3CCN(S(C)(=O)=O)CC3)cc2C)c(-c2csc(N3CCC(C(=O)O)CC3)n2)c1

>  <log10 solubility>
1.57

$$$$
>  <compound>
Cc1cc(CN2CCOCC2)ccc1COc1ccc(Cl)cc1-c1csc(N2CC3CCC(C2)C3C(=O)O)n1 (stereo not shown)

>  <log10 solubility>
1.11

$$$$
